# Test system: NCI-H460
# assay-text: Cytotoxicity against human NCI-H460 cells after 48 hrs by MTT assay
# Assay type: functional, cell-based
# measurement-context: NCI-H460, 48 h
I'd appreciate it if you could supply IC50 values for the items below.

Exercise: Given the compound CCOP(=O)(OCC)C(Nc1ccccc1)c1cc2cc3c(cc2[nH]c1=O)OCO3 (stereo not given) , what is its reported IC50?
Key: > 100 µM

Exercise: Given the compound CCOP(=O)(OCC)C(Nc1ccc(C)cc1)c1cc2cc(C)ccc2[nH]c1=O (stereo not given) , what is its reported IC50?
Key: > 100 µM

Exercise: Given the compound CCCCNC(c1cc2cc3c(cc2[nH]c1=O)OCO3)P(=O)(OCC)OCC (stereo not given) , what is its reported IC50?
Key: 47.9 µM

Exercise: Given the compound CCOP(=O)(Cc1ccc(/N=C/c2cc3cc(C)ccc3[nH]c2=O)cc1)OCC , what is its reported IC50?
Key: 39 µM

Exercise: Given the compound CCOP(=O)(OCC)C(Nc1ccc(C)cc1)c1cc2cc(OC)ccc2[nH]c1=O (stereo not given) , what is its reported IC50?
Key: > 100 µM

Exercise: Given the compound CCOP(=O)(OCC)C(Nc1ccc(C(F)(F)F)cc1)c1cc2cc3c(cc2[nH]c1=O)OCO3 (stereo not given) , what is its reported IC50?
Key: > 100 µM

Exercise: Given the compound O=Cc1cc2cc3c(cc2[nH]c1=O)OCO3 , what is its reported IC50?
Key: > 200 µM

Exercise: Given the compound CCOP(=O)(OCC)C(Nc1cccc(C)c1)c1cc2ccccc2[nH]c1=O (stereo not given) , what is its reported IC50?
Key: > 100 µM

Exercise: Given the compound CCOP(=O)(Cc1ccc(/N=C/c2cc3cc(OC)ccc3[nH]c2=O)cc1)OCC , what is its reported IC50?
Key: > 100 µM

Exercise: Given the compound CCOP(=O)(OCC)C(Nc1ccc([N+](=O)[O-])cc1)c1cc2cc3c(cc2[nH]c1=O)OCO3 (stereo not given) , what is its reported IC50?
Key: > 100 µM
